Molecular target: Neutrophil elastase (Homo sapiens, UniProt P08246)
Assay: Inhibition of human leukocyte elastase
We begin with a simple list: items and their reported pKi.
# pKi: negative log10 of molar concentration; output just the value

Query block: Identify pKi associated with the compound Cc1cccc2c(=O)oc(C(F)(F)F)nc12
Result block: 6.27

Query block: Identify pKi associated with the compound Cc1cc(N)cc2nc(NC(C)C)oc(=O)c12
Result block: 7.11

====

Molecular target: Neutrophil elastase (Homo sapiens)
Assay: Inhibition of human leukocyte elastase
endpoint.name: Ki (nM)
Express it in nM; write the number only.

Worked set:
CCCOc1cc(CC)c2c(=O)oc(NC(C)C)nc2c1 = 21.4
CCCc1nc2ccccc2c(=O)o1 = 2880
CCN(CC)c1ccc2c(=O)oc(NC(C)C)nc2c1 = 5500
CCSc1nc2ccc(C)cc2c(=O)o1 = 170

Query block: Identify Ki associated with the compound Cc1ccc2nc(C)oc(=O)c2c1
Result block: 34700

Query block: Identify Ki associated with the compound COC(=O)[C@@H](CC(C)C)Nc1nc2ccccc2c(=O)o1
Result block: 37.2

Query block: Identify Ki associated with the compound O=C(c1nc2ccccc2c(=O)o1)[C@@H]1CCCN1
Result block: 1120

Query block: Identify Ki associated with the compound Nc1cccc(CNc2nc3ccccc3c(=O)o2)c1
Result block: 1580

Query block: Identify Ki associated with the compound Cc1cccc2nc(N(C(C)C)C(C)C)oc(=O)c12
Result block: 398

Query block: Identify Ki associated with the compound Cc1nc2c(C)cccc2c(=O)o1
Result block: 7410

Query block: Identify Ki associated with the compound COC(=O)[C@H](CC(C)C)Nc1nc2cc(C)cc(C)c2c(=O)o1
Result block: 1260

Query block: Identify Ki associated with the compound CCOc1nc2cccc(C(C)C)c2c(=O)o1
Result block: 0.0708

Query block: Identify Ki associated with the compound CCSc1nc2ccccc2c(=O)o1
Result block: 8.13

====

Test: Partition coefficient (logD7.4)
Format: physicochemical
Conditions: octanol/water, pH 7.4
We begin with a simple list: items and their reported logD.

Worked set:
COC(=O)[C@H](Cc1ccc(O)cc1)Nc1nc2ccccc2c(=O)o1 = 0.3
O=c1oc(C(F)(F)F)nc2ccccc12 = 1.9

Attention now turns to another entry.
Query block: Identify logD associated with the molecule CC(C)N(c1nc2ccccc2c(=O)o1)C(C)C
Result block: 3.7

====

Test: Partition coefficient (logD7.4)
Type: physicochemical
Details: octanol/water, pH 7.4
Classify by logD. Ranges: zone 1: < 2; zone 2: ≥ 2 and < 3; zone 3: ≥ 3

CC(C)NC(=O)[C@H](CCC(N)=O)Nc1nc2ccccc2c(=O)o1 = zone 1
CC(C)C[C@H](NC(=O)[C@@H]1CCCN1c1nc2ccccc2c(=O)o1)C(=O)NCC(N)=O = zone 1
COC(=O)[C@H](CC(C)C)Nc1nc2cccc(C)c2c(=O)o1 = zone 3
Cc1ccc2nc(C)oc(=O)c2c1 = zone 1

Query block: Which category fits this record: COC(=O)[C@@H](CC(C)C)Nc1nc2ccccc2c(=O)o1
Result block: zone 3

====

We begin with a simple list: items and their reported Log kOH-.
Test: Alkaline hydrolysis rate of the compound
Format: ADME
The response must contain the number and no unit.

NC(=O)[C@H](Cc1ccccc1)NC(=O)[C@@H]1CCCN1c1nc2ccccc2c(=O)o1 = 1.23
Nc1ccc(CNc2nc3ccccc3c(=O)o2)cc1 = 1.36
CCC(C)Nc1nc2ccccc2c(=O)o1 (stereo unspecified) = 0.92
O=C(c1nc2ccccc2c(=O)o1)[C@@H]1CCCN1 = 1.69
CCN(CC)c1ccc2c(=O)oc(NC(C)C)nc2c1 = -0.99
Cc1cccc2nc(C(F)(F)C(F)(F)C(F)(F)F)oc(=O)c12 = 2.75
CC(=O)N(C)c1nc2ccccc2c(=O)o1 = 2.57
CCCCNc1nc2cccc(CC)c2c(=O)o1 = 0.38
Cc1nc2ccccc2c(=O)o1 = 1.69
CCOC(=O)CSc1nc2ccccc2c(=O)o1 = 2.93

Query block: Identify Log kOH- associated with the molecule CC(C)Nc1nc2cc(N)ccc2c(=O)o1
Result block: -0.46

Query block: Identify Log kOH- associated with the molecule Cc1nc2c(N)cccc2c(=O)o1
Result block: 2.61

Query block: Identify Log kOH- associated with the molecule CNc1nc2ccccc2c(=O)o1
Result block: 1.38

Query block: Identify Log kOH- associated with the molecule NC(=O)C1CCCN1c1nc2ccccc2c(=O)o1 (stereo unspecified)
Result block: 1.21

Query block: Identify Log kOH- associated with the molecule CC(C)COc1nc2ccccc2c(=O)o1
Result block: 1.83

Query block: Identify Log kOH- associated with the molecule COc1cc2nc(OCc3ccccc3)oc(=O)c2cc1OC
Result block: 0.97

Query block: Identify Log kOH- associated with the molecule CCc1cccc2nc(NC(C)C)oc(=O)c12
Result block: 0.31

Query block: Identify Log kOH- associated with the molecule NC(=O)[C@@H]1CCCN1c1nc2ccccc2c(=O)o1
Result block: 1.21

Query block: Identify Log kOH- associated with the molecule O=c1oc(CBr)nc2ccccc12
Result block: 2.06

Query block: Identify Log kOH- associated with the molecule COC(=O)C(Nc1nc2ccccc2c(=O)o1)c1ccccc1 (stereo unspecified)
Result block: 1.39

Query block: Identify Log kOH- associated with the molecule O=c1oc(C(F)(F)C(F)(F)C(F)(F)F)nc2ccccc12
Result block: 3.27

Query block: Identify Log kOH- associated with the molecule C[C@H](N)C(=O)c1nc2ccccc2c(=O)o1
Result block: 1.76

Query block: Identify Log kOH- associated with the molecule O=c1oc(-c2cccc([N+](=O)[O-])c2)nc2ccccc12
Result block: 1.82

====

Biological target: Neutrophil elastase (Homo sapiens, UniProt P08246)
Sequence (P08246 whole entry): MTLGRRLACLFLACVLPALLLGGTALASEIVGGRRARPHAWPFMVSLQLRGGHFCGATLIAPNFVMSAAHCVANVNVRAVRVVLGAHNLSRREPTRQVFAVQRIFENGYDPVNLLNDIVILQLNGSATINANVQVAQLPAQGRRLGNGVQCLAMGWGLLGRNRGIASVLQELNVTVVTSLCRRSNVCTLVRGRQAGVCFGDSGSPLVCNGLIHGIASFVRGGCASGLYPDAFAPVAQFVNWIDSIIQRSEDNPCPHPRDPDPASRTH
Assay: Inhibition of human leukocyte elastase
Please respond with class 1 when measured Ki is strictly beneath 100 nM, and with class 0 in all other cases.

Query block: For CCc1cccc2nc(N(C(C)C)C(C)C)oc(=O)c12 , is the recorded Ki below the cut-off of 100 nM?
Result block: class 1

Query block: For O=c1oc(SCc2ccccc2)nc2ccccc12 , is the recorded Ki below the cut-off of 100 nM?
Result block: class 1

Query block: For CCOC(=O)[C@H](C)Nc1nc2ccccc2c(=O)o1 , is the recorded Ki below the cut-off of 100 nM?
Result block: class 0

Query block: For O=c1oc(-c2ccco2)nc2ccccc12 , is the recorded Ki below the cut-off of 100 nM?
Result block: class 0

Query block: For Cc1nc2ccccc2c(=O)o1 , is the recorded Ki below the cut-off of 100 nM?
Result block: class 0

Query block: For COC(=O)[C@@H](NC(=O)[C@H](C)Nc1nc2ccccc2c(=O)o1)C(C)C , is the recorded Ki below the cut-off of 100 nM?
Result block: class 0

Query block: For Cc1ccc2c(=O)oc(NC(C)C)nc2c1C , is the recorded Ki below the cut-off of 100 nM?
Result block: class 0

Query block: For Cc1cccc2nc(Nc3ccccc3)oc(=O)c12 , is the recorded Ki below the cut-off of 100 nM?
Result block: class 0

Query block: For COc1cc2nc(SC/C=C/c3ccccc3)oc(=O)c2cc1OC , is the recorded Ki below the cut-off of 100 nM?
Result block: class 0

Query block: For CC(C)COc1nc2ccccc2c(=O)o1 , is the recorded Ki below the cut-off of 100 nM?
Result block: class 1

Query block: For CC(C)CN(CC(C)C)c1nc2ccccc2c(=O)o1 , is the recorded Ki below the cut-off of 100 nM?
Result block: class 0

Query block: For C[C@H](N)C(=O)c1nc2ccccc2c(=O)o1 , is the recorded Ki below the cut-off of 100 nM?
Result block: class 0

Query block: For O=c1oc(-c2cccc([N+](=O)[O-])c2)nc2ccccc12 , is the recorded Ki below the cut-off of 100 nM?
Result block: class 0

====

Molecular target: Neutrophil elastase (Homo sapiens, UniProt P08246)
Sequence (P08246 whole entry): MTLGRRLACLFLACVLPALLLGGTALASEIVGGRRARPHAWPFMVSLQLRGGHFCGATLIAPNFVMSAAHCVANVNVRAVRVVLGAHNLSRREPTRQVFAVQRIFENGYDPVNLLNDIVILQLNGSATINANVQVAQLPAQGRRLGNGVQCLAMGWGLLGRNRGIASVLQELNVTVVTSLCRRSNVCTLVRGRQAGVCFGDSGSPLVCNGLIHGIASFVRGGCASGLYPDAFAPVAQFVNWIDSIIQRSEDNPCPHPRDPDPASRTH
Test: Inhibition of human leukocyte elastase
pKi: −log10 of the molar value.
Is pKi at least 6? Then met. If not, not met.

These solved cases illustrate the format of a correct answer.
COC(=O)[C@H](Cc1ccc(O)cc1)Nc1nc2ccccc2c(=O)o1 = met
O=c1oc(N2CCCCC2)nc2ccccc12 = met

Query block: Does CCOc1nc2cc(OC)cc(C)c2c(=O)o1 have a reported pKi of at least 6?
Result block: met

Query block: Does O=c1oc(Cc2ccccc2)nc2ccccc12 have a reported pKi of at least 6?
Result block: not met

Query block: Does COC(=O)[C@H](CC(C)C)NC(=O)[C@H](CC(C)C)Nc1nc2cc(C)cc(C)c2c(=O)o1 have a reported pKi of at least 6?
Result block: met

Query block: Does COc1nc2cccc(C)c2c(=O)o1 have a reported pKi of at least 6?
Result block: met

Query block: Does CC(=O)NCc1nc2ccccc2c(=O)o1 have a reported pKi of at least 6?
Result block: not met
